B1: KCNA3 (parent)
chain: YQSGGRIRRPVNVPIDIFSEEIRF

# Variants of: B1
# experimentalProtocol: protein stability index of a GFP-peptide fusion (GPS, HEK-293T) (PSI 1-6); higher = more stable;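 further: lentivirally expressed fusions sorted by FACS into six bins by GFP to DsRed ratio, PSI derived from sequencing read proportions per bin multiplied by bin number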
# testSettings: c terminus: a fixed tail appended
measurementName: protein stability index
// print number alone

Before answering, review these 2 worked examples.
>>> observedresult("EQSGGRIRRPVNVPIDIFSEEIRF [Y1E]")
2.74
>>> observedresult("YTSGGRIRRPVNVPIDIFSEEIRF [Q2T]")
2.47

Return reported protein stability index; argument: YQSGGRIRRPVNVPLDIFSEEIRF [I15L] 1.83

I would be grateful if you could share the reported protein stability index for YQSGGRIRRPVNVPIDIFSEEIRQ [F24Q] . 2.31
